# system under test: T1, recombinant human TROP2 extracellular domain (aa 1-274) comprising His tag (human, UniProt P09758 27-274)
# T1 construct: Used here for all assays on recombinant human TROP2 (ELISA, immunoblot, SPR, crystal), although only some of them name the catalogue number; also called human recombinant TROP2; recombinant human TROP2 protein; not shown: His tag
# T1 sequence: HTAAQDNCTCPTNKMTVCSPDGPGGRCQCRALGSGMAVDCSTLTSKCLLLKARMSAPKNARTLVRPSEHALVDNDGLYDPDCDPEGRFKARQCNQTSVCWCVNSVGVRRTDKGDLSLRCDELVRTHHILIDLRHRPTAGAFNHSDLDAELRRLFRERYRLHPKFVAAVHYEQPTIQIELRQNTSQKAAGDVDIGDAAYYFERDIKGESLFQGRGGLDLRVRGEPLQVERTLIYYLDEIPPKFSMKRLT
# protocol notes: ELISA, coated rh TROP2, normalized to KD005
recorded endpoint: EC50 relative to KD005

>>> measured("KD043 (antibody, V domains shown, KD005 humanized variant) VH: EVQLLESGGGLVQPGGSLRLSCAASGFTFSGSDMSWVRQAPGKGLEWVSAITSGGTTYYADTVKGRFTISRDNSKNTLYLQMNSLRAEDTAVYYCAKSRLTDSHYVEDAWGQGTLVTVSS")
"1.01 ratio to KD005"

Now let's try a different one.
Look up EC50 relative to KD005: KD050 (antibody, V domains shown, KD005 humanized variant) VH: QVQLQESGGGLVQPGGSLRLSCAASGFTFSGSDMSWVRQAPGKGPEWVSYITSGGTTYYPDTVKGRFTISRDNSKNTLYLQMNSLKPDDTAVYRCAKSRLTDSHYVEDAWGQGTQVTVSS
1.12 ratio to KD005
